# Tested on: PIK3CG;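 also: KINOMEscan kinase panel screen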
# Protocol Conditions: concentration: 1 μM,replicates: in singlicate; n = 1
Threshold-based label: %Inh under 2% gives t, %Inh not under 2% gives f.

CCN(CC)CCOc1ccc(Nc2ncc3cc(-c4c(Cl)cccc4Cl)c(=O)n(C)c3n2)cc1 [SB-601273] :: f
O=C(NCCCN1CCOC1=O)c1cnc(NCc2cc(Cl)ccc2Cl)nc1NC1CCCC1 :: t
COc1ccc(C[C@@H](CN)NC(=O)c2cc(Br)c(-c3ccnc4[nH]ccc34)s2)cc1.Cl.Cl [GSK1389063] :: t
CC(C)Nc1cc(-c2ccc3c(N)n[nH]c3c2)nc(N)n1 [GSK2221681] :: t
C[C@@H](Oc1cc(-c2cnn(C3CCNCC3)c2)cnc1N)c1c(Cl)ccc(F)c1Cl :: f
Cl.Cl.NC[C@H](Cc1ccc(C(F)(F)F)cc1)NC(=O)c1cc(Br)c(-c2ccnc3[nH]ccc23)s1 [GSK1487252] :: t
Cc1ccc2c(-c3ccncc3)c(-c3ccc(F)cc3)nn2c1.Cl [GW461484] :: t
Cc1occc1-c1nc(N)c(OC[C@@H](N)Cc2c[nH]c3ccccc23)cc1-c1cc2c(C)n[nH]c2cn1 [GSK1660450] :: t
Cl.Cl.Nc1nc(-c2ccc3c(N)n[nH]c3c2)cc(N2CCCC(NC(=O)c3ccccc3)C2)n1 (centres unmarked) [GSK2286775] :: f
CC(C)N1C(=O)Cc2cc(Nc3ncc(C(F)(F)F)c(NCc4cccc(S(C)(=O)=O)c4)n3)ccc21 :: f
C[C@H]1Oc2cc(cnc2N)-c2c(nn(C)c2C#N)CN(C)C(=O)c2ccc(F)cc21 :: t
CCn1c(-c2nonc2N)nc2c(C#CC(C)(C)O)nc(OCCN)cc21.Cl.Cl [GSK902056] :: t
Cl.Cl.NC[C@H](CC1CCCCC1)NC(=O)c1cc(Br)c(-c2ccnc3[nH]ccc23)s1 [GSK1581427] :: t
Cc1cc2cn[nH]c2cc1-c1cccc2c(N)c(C(N)=O)nnc12 :: t

Numbers sourced from paper PMC5540273.
